Tested on: cGAS activity in THP1 cells
TEST DETAILS: Cellular assay: ISRE-Gaussia luciferase reporter THP1 cells transfected with ISD (Interferon Stimulatory DNA)
Format: cell-based
PROTOCOL CONDITIONS: Homo sapiens, THP-1; ISRE-Gaussia luciferase reporter THP1 cells transfected with 2 μg/mL ISD, 16 hours; read-out: THP1-ISD (Inhibition of cGAS activity in THP1 cells, IC50)
pIC50: −log10 of the molar value.
For each of the compounds below, state its pIC50.

CN1C(=O)S/C(=C\c2cc(OCc3cnc(NCCO)nc3)c(O)c(F)c2Br)C1=O | ≥ 5.60
CC(Oc1cc(/C=C2\Sc3ncc(F)cc3C2=O)c(Br)c(F)c1O)c1cnc(N)nc1 (stereo not drawn) | 5.00 to 5.60

*Q* Requested field: pIC50. Item: CN1C(=O)S/C(=C\c2cc(OCc3cncnc3N)c(O)c(F)c2Br)C1=O
*A* ≤ 5.00

The measured values listed here are drawn from patent US12065416B2.
